// data source = patent US7803821B2

# method_description: log P by HPLC on reversed-phase column (C18), EEC Directive 79/831 Annex V.A8
# Format: physicochemical
# test_context: C18, 40° C., 0.1% aqueous formic acid and acetonitrile, gradient 10% to 90% acetonitrile
Provide the reported logP of each item.
Answers are plain numbers.

Look over these answered cases.
# compound, logP
data = [
    ("CC(c1cnccn1)N(C(=O)c1ccco1)C1CC1 (centres unmarked)", 1.62),
    ("Cc1cc(C(=O)N(C2CC2)C(C)c2cnccn2)nn1C (centres unmarked)", 1.45),
]

Please give logP for each item listed below.
1. Cn1cc(C(=O)N(Cc2ccc(Cl)nc2)C2CC2)c(C(F)F)n1
2. Cc1nn(C)c(F)c1C(=O)N(C1CC1)C(C)c1ncc(Cl)cc1Cl (centres unmarked)
3. Cc1nn(C)c(F)c1C(=O)N(Cc1ncc(Cl)cc1Cl)C1CC1
4. Cc1nc(C(=O)N(C2CC2)C(C)c2cnccn2)c(C)o1 (centres unmarked)
5. COc1ccc(CN(C(=O)c2ccco2)C2CC2)cn1
6. Cc1nn(C)cc1C(=O)N(C1CC1)C(C)c1ncc(Cl)cc1Cl (centres unmarked)
7. Cc1nc(C(F)F)c(C(=O)N(Cc2ncc(Cl)cc2Cl)C2CC2)s1

Response line:
1. 1.97
2. 2.77
3. 2.56
4. 1.55
5. 1.97
6. 2.4
7. 3.42
